Recorded abundance fitness, one value per entry.
B1: Kinesin-like protein KIF16B, residues 1213 to 1273; numbered along this chain, Q96L93 (parent)
chain: ETWTVFRRYSRFREMHKTLKLKYAELAALEFPPKKLFGNKDERVIAERRSHLEKYLRDFFS

Variants of: B1
protocolText: abundance fitness (aPCA) (normalised: wild type 0, dead -1); higher = more abundant; growth selection in yeast, the domain comes from the species named
details: Homo sapiens
reportedMetric: abundance fitness

variantdesignation=E47A readoutvalue=-0.307
variantdesignation=E25I readoutvalue=-0.292
variantdesignation=A27G readoutvalue=-0.293
